Recorded CPE inhibition by entry
experiment: West Nile virus antiviral activity, cell-based, CPE readout (AID 1621); conditions: West Nile virus-infected cells, at 10 µM, active compounds read high
Out of some 290,000 compounds screened, about 60 (0.02%) were called active. About 1% were inconclusive and are not listed. A selection follows. Entries with a potency or affinity are not part of this list.

compound | reading_unit | CPE inhibition
CCOC(=O)NN1C(=O)c2ccccc2NC1c1ccccn1 (stereo unspecified) | % | 0.09
O=c1c2ccccc2cnn1Cc1cccc(Br)c1 | % | 0
CCN(CCN(C)C)C(=O)C1CCN(S(=O)(=O)c2c(C)noc2/C=C/c2ccccc2F)CC1 | % | 0.04
Cc1ccc(OCC(O)Cn2c(N3CCCCC3)nc3c2c(=O)[nH]c(=O)n3C)cc1C (stereo unspecified) | % | -0.27
O=C(Nc1ccc(S(=O)(=O)Nc2nccs2)cc1)c1ccc(=O)[nH]c1 | % | -0.06
CNC(=O)C1CCN(S(=O)(=O)c2c(C)noc2/C=C/c2ccccc2F)CC1 | % | -1

###

assay: West Nile virus antiviral activity, cell-based, CPE readout (AID 1621); settings: West Nile virus-infected cells, at 10 µM, active compounds read high
Hit rate of the full screen: of about 290,000 compounds, about 60 (0.02%) were called active. Not shown: some 1% with an inconclusive outcome. The list is a sample of the results. Entries with a potency or affinity are not part of this list.
// CPE inhibition lookup, one value per entry
attribute_measured: CPE inhibition (%)

compound | attribute_measured | experimental_value
COCCn1nnnc1C(c1cccs1)N1CCN2CCCC2C1 (stereo not given) | CPE inhibition | 0.23
O=S(=O)(CCSc1ccc(C(F)(F)F)cn1)c1ccc(Cl)cc1 | CPE inhibition | -0.47
COc1ccc(/C=C/C(=O)OCC(=O)NCc2ccco2)c(OC)c1 | CPE inhibition | -0.46
O=C(c1ccco1)c1cn[nH]c1-c1ccc(Cl)cc1O | CPE inhibition | 0.03
CCN(CCN1CCCC1)C(=O)c1cc(COc2ccccc2SC)on1 | CPE inhibition | -1.45
CCCNc1c(NC(=O)c2cccs2)c(=O)oc2ccccc12 | CPE inhibition | -0.26
O=C(CN1C(=O)NC2(CCCCCC2)C1=O)Nc1ccc(S(=O)(=O)N2CCOCC2)cc1 | CPE inhibition | 0.5
CC(=O)c1ccc(N2CCN(c3ccc(S(=O)(=O)NCCCN(C)C)cc3[N+](=O)[O-])CC2)cc1 | CPE inhibition | -2.19
CCN(CCCNC(=O)c1cc2c(-c3cccc(OC)c3)nn(C)c2s1)Cc1ccccc1 | CPE inhibition | 11.5
CC(=O)c1ccc(N2CCN(c3ccc(S(=O)(=O)NCCN(C)C)cc3[N+](=O)[O-])CC2)cc1 | CPE inhibition | -0.21

###

assay: West Nile virus antiviral activity, cell-based, CPE readout (AID 1621); details: West Nile virus-infected cells, at 10 µM, active compounds read high
The campaign covered roughly 290,000 compounds. About 60 (0.02%) were called active. Another 1% or so got no clear call; they are omitted. A selection follows. Results with a measured potency or affinity are listed apart.

molecule | CPE inhibition / %
CN(C)S(=O)(=O)c1cccc(NC(=O)c2cncc(Br)c2)c1 | 0.06
O=[N+]([O-])c1ccc(C(O)CSC(=S)N2CCCCC2)cc1 (centres undefined) | -0.96
O=C(c1cc2ncccn2n1)N1CCc2c([nH]c3ccccc23)C1c1ccccc1F (centres undefined) | 2.67
c1ccc2c(c1)CN1CCCC1=N2 | 0.51
COc1ccc(C(=O)Oc2ccc3c(c2)OCO3)cc1OC | 0.51
Cc1ccc(-c2oc3ccccc3c(=O)c2OCC(=O)O)cc1 | 0.23
CCCC1CCC(C(=O)Nn2cnc3ccccc3c2=O)CC1 (centres undefined) | 0.33
Cc1ccc(S(=O)(=O)N(C)C)cc1NC(=O)c1ccncc1 | 0.43
COCCn1c(N)c(N(Cc2ccccc2)C(=O)Cc2c(Cl)cccc2Cl)c(=O)[nH]c1=O | -0.15
O=C(CNS(=O)(=O)c1ccccc1)OCC(=O)c1ccc(Br)cc1 | -0.68
CCN1CCc2nc3ccccc3c(C(=O)Nc3ccc(F)cc3)c2C1 | -0.07
CN1CCN(c2ccccc2NC(=O)c2sc3ccccc3c2Cl)CC1 | -0.79
COc1ccc(C2c3ccc4ccccc4c3Oc3ncn(CCO)c(=N)c32)cc1OC (centres undefined) | 57.3
Cc1nn(Cc2ccccc2Cl)c2sc(C(=O)OC3CCCC3=O)cc12 (centres undefined) | -0.34
CCC(C)NC(=O)C1CCCN(S(=O)(=O)c2ccc(-n3cnnn3)cc2)C1 (centres undefined) | 0.81
COC(=O)c1c(-c2ccc(C)cc2)csc1NC(=O)c1c(-c2ccccc2)noc1C | 0.29
O=C(NCCN1CCOCC1)c1ccc(/C=C2\Sc3ccccc3N(Cc3ccccc3F)C2=O)cc1 | 2.03
CC1CCC2C(=O)N(c3cccc(C(=O)Nc4ccccc4Cl)c3)C(=O)C2C1 (centres undefined) | 0.29
CCOC(=O)c1c(C)c(C(=O)NCc2cccs2)c(C)n1CC | -0.75
O=C(NCc1ccc(F)cc1)C1CCCN(S(=O)(=O)c2ccc(-n3cnnn3)cc2)C1 (centres undefined) | 0.7
CCOC(=O)c1c(NC(=O)CSc2cccc[n+]2[O-])sc(C(=O)Nc2ccccc2)c1C | -0.77
CCOC(=O)c1ccc(NC(=S)N(CCCN2CCN(CC)CC2)Cc2ccco2)cc1 | -0.57
N=c1c2c(ncn1CCN1CCOCC1)Oc1ccc3ccccc3c1C2c1ccccc1 (centres undefined) | 2.66
CN(C)CCCNC(=O)c1ccccn1 | 0.08
COc1ccc(/C=C2\SC(=S)N(NS(=O)(=O)c3ccc(C)cc3)C2=O)c(OC)c1 | -0.03
CCOC(=O)c1sc(=NC(=O)c2cccs2)n(C)c1C | 0.29
Cc1ccc(-c2cc(C(=O)NCCCN3CCOCC3)c3ccccc3n2)cc1C | 0.07
COCCN(CCOC)C(=O)c1cc2sc3ccccc3c2s1 | -0.78
Cc1ccccc1/C=N/N1C(=O)CSC1=S | 0.91
O=C(COc1ccc(Cl)cc1)NC1=NN(c2ccccc2)C(=O)C1 | -0.49
CCOC(=O)C1CCN(C(=S)Nc2cc(OC)c(OC)cc2C(=O)OC)CC1 | 0.82
CCN(CC)CCC(c1cc(OC)c(OC)c(OC)c1)c1c(OC)cc(OC)c2c(C)cc(=O)oc12 (centres undefined) | -0.13
CC1C(O)=C(c2nc3ccccc3[nH]2)C(=N)N1c1ccccc1 (centres undefined) | 1.12
Cc1cc(C)c2nc(N3CCCC(C(=O)NCCCN4CCOCC4)C3)sc2c1 (centres undefined) | -0.13
COCCNC(=O)c1onc(CSc2cc(C)cc(C)c2)c1C(=O)NCCOC | 0.39
CCCCNC(=O)c1onc(CSc2cc(C)cc(C)c2)c1C(=O)NCCCC | -0.6
Cc1sc(/C=C2\C(=O)ON=C2c2ccccc2)cc1Br | 0.35
Cc1nc(Cl)sc1C(=O)NC(C)c1ccc(Cl)cc1 (centres undefined) | -0.9
CCCCN(CC)CCNC(=O)c1cc2c(=O)n(CC)c3ccccc3c2s1 | -1.08
O=C1CN2C(=Nc3ccc(Br)cc3C2c2ccccc2)CCN1 (centres undefined) | -0.54
CCN(CC)CCCNC(=O)c1cc2c(=O)n(CC)c3ccccc3c2s1 | 1.54
CCCC(=O)Nc1c(C(=O)OCC)[nH]c2ccccc12 | 0
Cc1cccn2c(=O)c3cc(C(=O)NCCN4CCOCC4)c(=N)n(CCN4CCOCC4)c3nc12 | -0.04
CCOC(=O)c1[nH]c2ccccc2c1NC(=O)C(C)(C)C | 0.96

###

experiment: West Nile virus antiviral activity, cell-based, CPE readout (AID 1621); conditions: West Nile virus-infected cells, at 10 µM, active compounds read high
The whole screen tested about 290,000 compounds, of which about 60 (0.02%) were called active. Not shown: some 1% with an inconclusive outcome. These entries were drawn from the full list. Potency and affinity values are given separately.

molecule | CPE inhibition / %
O=C1N[C@@H](Cc2ccccc2)C(=O)N2[C@@H]1C[C@@]1(Br)c3ccccc3N(S(=O)(=O)c3ccccc3)[C@@H]21 | -0.59
CC(C)c1cc(C(C)C)c(S(=O)(=O)N2c3ccccc3[C@@]3(Br)C[C@H]4C(=O)N[C@@H](Cc5ccccc5)C(=O)N4[C@@H]23)c(C(C)C)c1 | 2.08
O=C(N/N=C\c1ccc(S(=O)(=O)O)o1)c1ccc2c(c1)OCO2 | -0.67
Cc1ccc(S(=O)(=O)NNC(=O)Nc2cccc(F)c2)c(C)c1 | 0.14
COc1cccc(-n2c(SCC(=O)Nc3ccc4c(c3)CCC4)nc3ccccc3c2=O)c1 | 2.86
CN(C)C(=O)N1CCN(c2nc(-c3ccccc3)cs2)CC1 | -0.36
COc1ccc(Cl)cc1C(=O)NCCCSc1ccccc1 | -1.17
O=C1CSC(c2cn(-c3ccccc3)nc2-c2ccccc2)N1Cc1ccco1 (stereo not given) | -0.03
O=C(CCCl)N1CCN(c2nc(-c3ccccc3)cs2)CC1 | 1.96
CNc1nc2ccccc2n1CC(=O)c1ccccc1 | -1.12

This collection of values is drawn from PubChem BioAssay AID1621.
